- System Tested: Phosphoglycerate kinase, glycosomal (Trypanosoma brucei brucei)
- Assay Overview: qHTS Validation Assay to Find Inhibitors of Phosphoglycerate Kinase (AID 504547);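 also: control wells lack PGK and mark full inhibition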
- Test Settings: enzymatic PGK inhibition, coupled luminescence read-out; series mostly up to 57.5 µM
Activity calls are given as the source filed them. Calls follow the shape of the dose curve; as a rule, active = well fitted inhibition curve with a large enough effect; inconclusive = small, poorly fitted or top-dose-only effect; inactive = flat fitted curve, though single readings scatter.
Please reply with one of these outcomes: active, inactive

Solved cases below.
Compound: NC(CCCCCP(=O)(O)O)C(=O)O (stereo not given)
Classification: inactive
--
Compound: CN(C(=O)Cc1ccc(Cl)c(Cl)c1)C(CN1CCCC1)c1cccc(OCC(=O)O)c1 (stereo not given)
Classification: inactive
--
Compound: C=CCN(C1=NCCN1)c1c(Cl)cccc1Cl
Classification: inactive
--
Compound: NC(=O)c1cc(N2CC2)c([N+](=O)[O-])cc1[N+](=O)[O-]
Classification: inactive
--
Compound: O=c1c2ccccc2[se]n1-c1ccccc1
Classification: inactive

How was C[Se]C[C@H](N)C(=O)O classified in this test?
inactive

How was CCN1C[C@@]2(COC)C3[C@@H](OC)C4[C@@H]1C3([C@@H]1C[C@]3(O)[C@H](OC(=O)c5ccccc5)[C@@H]1[C@]4(OC(C)=O)[C@@H](O)[C@@H]3OC)[C@H](OC)C[C@H]2O classified in this test?
inactive

How was COc1ccc(CNC(=O)/C=C/c2ccc3[nH]cc(CCN(C)C)c3c2)cc1 classified in this test?
inactive

----------
- Assay Overview: qHTS for Inhibitors of the Functional Ribonucleoprotein Complex (vRNP) of Lassa (LASV) Arenavirus: Viability assay - alamar blue signal for LASV Primary Screen (AID 1347083); also: nearly all actives have a fitted effect of over 80% in size
- Test Settings: cell viability, alamar blue fluorescence (LASV minigenome counter-screen); series mostly up to 57.5 µM
Records with an inconclusive call do not appear. Activity calls are given as the source filed them. The call rests on the fitted dose curve; tested in HEK293 reporter line.
Measure Name: outcome

Compound: CC(N)[C@H](O)c1ccc(O)c(O)c1 (stereo partly drawn)
Readout Value: inactive
//
Compound: COc1ccc2[nH]cc(CCN)c2c1
Readout Value: inactive
//
Compound: C/C(O)=C(\C#N)C(=O)Nc1cc(Br)ccc1Br
Readout Value: inactive

----------
- Assay Overview: qHTS for differential inhibitors of proliferation of Plasmodium falciparum line HB3 (AID 1886);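 also: parasites grown with compound for 72 h before SYBR Green readout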
- Test Settings: Plasmodium falciparum HB3 proliferation inhibition; series mostly up to 28.7 µM
Inconclusive results are not listed. Activity calls are given as the source filed them. The call rests on the fitted dose curve; in most records, active means well fitted curve in the direction sought with a large enough effect; inconclusive means small, poorly fitted or top-dose-only effect, or another doubt; inactive means no such curve, though single readings can be large or run the other way.
Please reply with one of these outcomes: 1 = active, 0 = inactive

Line Notation: CC(=O)NBr
Classification: 0
//
Line Notation: N#CC(C#N)=Cc1cc(O)c(O)c(O)c1
Classification: 1

Please turn your attention to the following entry.
How was C=CCN1C[C@@H](C)N([C@H](c2ccc(C(=O)N(CC)CC)cc2)c2cccc(OC)c2)C[C@@H]1C classified in this test?
1

----------
- Assay Overview: qHTS assay to identify small molecule inhibitors of chordoma cells - UCH-2 (AID 1259356)
- Test Settings: UCH-2 chordoma viability, CellTiter-Glo ATP luminescence, 48 h; series mostly up to 46.1 µM
Records with an inconclusive call do not appear. Active and inactive are the calls of the source. The call rests on the fitted dose curve; in most records, active means well fitted cell-killing curve with a large enough effect; inconclusive means small, poorly fitted or top-dose-only effect; inactive means flat fitted curve, though single readings scatter.
Please reply with one of these outcomes: active, inactive

Molecule: C[N+]1(C)CCCCC1COC(=O)C(O)(c1ccccc1)c1ccccc1 (stereo not drawn)
Classification: inactive
//
Molecule: c1csc(C2(N3CCCCC3)CCCCC2)c1
Classification: inactive
//
Molecule: CCNC(C)Cc1cccc(C(F)(F)F)c1 (stereo not drawn)
Classification: inactive
//
Molecule: CCCCC[C@@H](O)C1C(=O)OC(C)[C@H](O)/C=C/C=C/C=C/C=C/C=C(\C)C(O)C(O)C(O)C[C@H](O)C[C@H](O)C[C@H](O)C[C@H](O)C[C@@H]1O (stereo partly drawn)
Classification: inactive
//
Molecule: [H+].[H+].[Hg+2].[O-]B([O-])[O-].[c-]1ccccc1
Classification: active

How was CC(Cc1ccccc1)NC=O (stereo not drawn) classified in this test?
inactive

How was CC(=O)OCC(=O)[C@H]1CC[C@H]2[C@@H]3CC[C@H]4C[C@H](O)CC[C@]4(C)[C@H]3C(=O)C[C@]12C classified in this test?
inactive

How was CO[C@H]1[C@@H](O)C[C@H](O[C@H]2[C@@H](O)C[C@H](O[C@H]3[C@@H](O)C[C@H](O[C@H]4CC[C@@]5(C)[C@H](CC[C@@H]6[C@@H]5C[C@@H](O)[C@]5(C)[C@@H](C7=CC(=O)OC7)CC[C@]65O)C4)O[C@@H]3C)O[C@@H]2C)O[C@@H]1C classified in this test?
active

----------
- Assay Overview: P-glycoprotein substrates identified in KB-8-5-11 adenocarcinoma cell line, qHTS therapeutic library screen (AID 1346987); also: nearly all actives have a fitted effect of over 65% in size
- Test Settings: KB-8-5-11 (P-gp overexpressing) viability, CellTiter-Glo, 72 h; series mostly up to 44.5 µM
Records with an inconclusive call do not appear. Calls of active or inactive are those of the source. Calls come from the whole dose curve; as a rule, active = well fitted inhibition curve with a large enough effect; inconclusive = small, poorly fitted or top-dose-only effect; inactive = flat fitted curve, though single readings scatter.
Please reply with one of these outcomes: T (active), F (inactive)

Solved cases below.
Molecule: CN1CCCC(=C(c2cccs2)c2cccs2)C1
Classification: F
--
Molecule: CC1=C2C(=O)C3[C@@H](CC=C4C[C@@H](O)CC[C@@]43C)[C@@H]2CC[C@]12O[C@@H]1C[C@H](C)CN[C@H]1[C@H]2C (stereo not given in full)
Classification: F
--
Molecule: CCC1(c2ccccc2)C(=O)NC(=O)N(C(=O)c2ccccc2)C1=O (stereo not given)
Classification: F
--
Molecule: CC12CCC3C(CCC4(O)CC(O)CCC34C=O)C1(O)CCC2C1=CC(=O)OC1 (stereo not given)
Classification: T
--
Molecule: CC[C@H]1CN2CC[C@H]1C[C@@H]2[C@@H](O)c1ccnc2ccc(OC)cc12
Classification: F
--
Molecule: COCC1OC(=O)c2coc3c2C1(C)C1=C(C3=O)C2CCC(=O)C2(C)CC1O (stereo not given)
Classification: F

How was C=CCN=C=S classified in this test?
F

How was C=CCN1CC[C@]23c4c5ccc(O)c4O[C@H]2[C@@H](O)C=C[C@H]3[C@H]1C5 classified in this test?
F

How was CC(=O)O[C@H]1CC[C@H]2[C@@H]3CCC4=CC(=O)CCC4=C3C=C[C@]12C classified in this test?
T

How was C[CH2][Hg][S]c1ccccc1C(=O)O classified in this test?
T

How was CCCC(=O)OC(C(Cl)(Cl)Cl)P(=O)(OC)OC (stereo not given) classified in this test?
F

----------
- System Tested: Atrial natriuretic peptide receptor 1 (Homo sapiens)
- Assay Overview: Natriuretic polypeptide receptor (hNpr1) antagonism - Pilot screen (AID 1347049);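 also: HEK293 cells with hNpr1 and GloSensor cGMP luciferase stimulated by 0.1 nM hNppA; agonist-evoked cGMP luminescence read 20 min after hNppA addition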
- Test Settings: hNpr1 cells, antagonist mode cGMP read-out; series mostly up to 57.5 µM
Inconclusive results are not listed. The source made the active and inactive calls. Calls follow the shape of the full dose curve.
Please reply with one of these outcomes: active, inactive

Solved cases below.
Molecule: C=CCN1CC[C@]23c4c5ccc(O)c4O[C@H]2/C(=N/NC(=O)c2ccccc2)CC[C@@]3(O)[C@H]1C5
Classification: inactive
--
Molecule: CCn1cnc2c(Nc3cccc(Cl)c3)nc(N[C@@H]3CCCC[C@@H]3N)nc21
Classification: inactive
--
Molecule: NC(N)=Nc1ccc2[nH]c3c(c2c1)C[C@@]1(O)[C@H]2Cc4ccc(O)c5c4[C@@]1(CCN2CC1CC1)[C@H]3O5
Classification: active
--
Molecule: C/C(O)=C(\C#N)C(=O)Nc1cc(Br)ccc1Br
Classification: inactive
--
Molecule: CCCN1CCc2cc(O)cc3c2[C@H]1Cc1ccc(O)c(O)c1-3
Classification: inactive

How was Clc1ccc(N2CC3CCC(C2)N3)nn1 classified in this test?
inactive

How was NC(N)=NOCC[C@H](N)C(=O)O classified in this test?
inactive

How was COc1ccc2c(c1O)-c1cccc3c1[C@@H](C2)N(C)CC3 classified in this test?
inactive

How was CCN(CCCl)Cc1ccccc1Br classified in this test?
inactive

How was Cc1sc2ccccc2c1CC1=NCCN1 classified in this test?
inactive

How was NNC(=O)c1ccc(O)cc1 classified in this test?
inactive

How was CC(N)Cc1c[nH]c2ccc(O)cc12 (stereo not given) classified in this test?
inactive

How was OCc1cnc[nH]1 classified in this test?
inactive

How was CN(N=O)c1cc(O)ccc1O classified in this test?
inactive

How was CN(N=O)c1ccc(O)c(O)c1 classified in this test?
inactive

----------
- Assay Overview: Cell Viability - LYMP2-008 (AID 980); also: nearly all actives have a fitted effect of over 60% in size; also: potency is read from the fitted curve at half-maximal effect
- Test Settings: LYMP2-008 lymphoblastoid cell viability, qHTS; series mostly up to 92.2 µM
Inconclusive results are not listed. The source made the active and inactive calls. Calls follow the shape of the dose curve; as a rule, active = well fitted cell-killing curve with a large enough effect; inconclusive = small, poorly fitted or top-dose-only effect; inactive = flat fitted curve, though single readings scatter.
Measure Name: Potency

Compound: C[C@]12CCC(=O)C[C@@H]1CC[C@@H]1[C@@H]2CC[C@]2(C)[C@@H](O)CC[C@@H]12
Potency: inactive

Compound: O=Cc1ccco1
Potency: inactive

Compound: CC(C)Nc1ccc(Nc2ccccc2)cc1
Potency: 39.8 µM (active)

Compound: CCCCCCCCOC(=O)c1ccccc1C(=O)OCCCCCCCC
Potency: inactive

Compound: O=C1CCO1
Potency: inactive

Endpoint output: Potency of O=CC=O . Value?
inactive

Endpoint output: Potency of ClC(Cl)(Cl)Cl . Value?
inactive

Endpoint output: Potency of COC1=CC(=O)O[C@@H](/C=C/c2ccccc2)C1 . Value?
inactive

Endpoint output: Potency of COc1ccc2c(c1OC)C(=O)OC2C1c2cc3c(cc2CCN1C)OCO3 (stereo unspecified) . Value?
inactive
